# credit: the supplement of paper PMC11865577

Tested on: TO-N3-2 (biotin conjugate)
Assay: pull-down binding Z-score (relative to library population); higher = stronger binding
Settings: RNA library: Library-2
Lab note: anything with pull-down binding Z-score at or over 0.1 counts as class 1; the rest go in class 0.

Examples from the recorded data:
SEQUENCE_TEXT	CLASS
AACAUACAUUUGUCUUGGUGUGUU [hsa-mir-4684]	class 0
UGGUCAGAUAUCCCAU [hsa-mir-8060]	class 0
CCACGCACAUUGCUAACUAAGGGCACACUAGAACCAGAAUAUUUCAAUUCAGUGUGUAGACUUAUGAAAACUAUAGGUCCAGACAUGUUCCUCGGAACUUGUCGG	class 1
CUAUAGUAGCUGGUGGUAUUGUAGCUAUCGUAG [SHAPE_invitro_SARS-CoV-2_Motif_182]	class 1

Shift focus to the following entry.
q: Threshold query (pull-down binding Z-score >= 0.1) on CCACUACCGGUGA [hsa-mir-4658]
a: class 0

* * *

Test system: TO-3-N3-2 (biotin conjugate)
Assay: pull-down binding Z-score (relative to library population); higher = stronger binding
Conditions: RNA library: Library-2
So basically every entry gets a class from its pull-down binding Z-score, ranges being 1 = under -0.2, 2 = from -0.2 up to 0.2, 3 = 0.2 and over

Examples from the recorded data:
> print(dat)
                              sequence.text                  assay.system  class
1                CAUUCUUUGCUA [hsa-mir-567]  TO-3-N3-2 (biotin conjugate)      1
2      CCAGUGGUUUUCCUUGACUGUG [hsa-mir-298]  TO-3-N3-2 (biotin conjugate)      1
3  CGUUCCAAUGCGACACCUCUAGAGUGUCAUCCCCUAGAAUGUCACCUUGGAAAG [hsa-mir-4432]  TO-3-N3-2 (biotin conjugate)      2
4  GGCGCUGGGACCCCACUAGGGUGGCGCC [hsa-mir-4488]  TO-3-N3-2 (biotin conjugate)      3
5  AAAUAAGAGGCUAGGAUUGCCUCUUAUUU [hsa-mir-3201]  TO-3-N3-2 (biotin conjugate)      1

q: Form: Item = UGGAUCACGCCGACAACACUGGUCU [hsa-mir-4635] ; Class = ?
a: 2

q: Form: Item = GCCCGGGCACCGCCCCUU [hsa-mir-718] ; Class = ?
a: 2

q: Form: Item = CUGUGGUGGCUGCUCAUGCACCACGG [hsa-mir-105-1] ; Class = ?
a: 1

q: Form: Item = GUUUUUGUACACAAUUAAACCGUGCUUUAACUGGAAUAGCUGUUGAACAAGACAAAAAC [DMSMaPseq_invitro_SARS-CoV-2_Motif_424] ; Class = ?
a: 2

q: Form: Item = GGGUGGGUGGGUGGGUGGGUGGGU [G4_r(GGGU)6] ; Class = ?
a: 3

q: Form: Item = UUGAACUUCAUUUCUCAUGCUCA [hsa-mir-6870] ; Class = ?
a: 3

q: Form: Item = UAUAUGCCUUAUUUCUUUACUUUAUUGCUACAAUUGUGUACUUUUACUAGAAGUACAAAUUCUAGAAUUAAAGCAUCUA [DMSMaPseq_invitro_SARS-CoV-2_Motif_128] ; Class = ?
a: 2

q: Form: Item = AGGCUCUGGGUCCGGCUUACUCCCUAGCUUACUGUCCUCAGAACCC [hsa-mir-6071] ; Class = ?
a: 3

q: Form: Item = GUGUUGGGUAUAAGUAACA [hsa-mir-1270] ; Class = ?
a: 2

q: Form: Item = CAGAGGGGCUGGCAGUACUGCUCUG [hsa-mir-4649] ; Class = ?
a: 3

q: Form: Item = UCCUCAGACCAGGUGGCUCCCGAGCCACCCCAGGCUGUAGG [hsa-mir-2392] ; Class = ?
a: 2

q: Form: Item = CGAGCCGCUUCCUCACGGCUCG [hsa-mir-4665] ; Class = ?
a: 1

q: Form: Item = UGGGCUCCCCUAGACUAGGACUCCA [hsa-mir-1825] ; Class = ?
a: 1

q: Form: Item = UGUCAUUGAAAGUAAUAGCA [hsa-mir-548h-3] ; Class = ?
a: 2

q: Form: Item = AUAGUUUGGGGCUCUGCCCUGCUAUGGGAUAACUAU [hsa-let-7a-3] ; Class = ?
a: 2

q: Form: Item = CCCCGGCCCCGGCCCCGGCCCCGG [r(CCCCGG)4] ; Class = ?
a: 3

q: Form: Item = GGUAAUUAUACAGUUUCCUGUUUACC [DMSMaPseq_invitro_SARS-CoV-2_Motif_504] ; Class = ?
a: 1

q: Form: Item = UUAAUGAGGCCAUAGA [hsa-mir-6863] ; Class = ?
a: 1

q: Form: Item = AACGGGGCGGGCCUCGGGCGGGGUAA [G4_2A2_VEGF-Pu22-mt3] ; Class = ?
a: 3

q: Form: Item = CCUUUGUGAGCAGUGUGACCCAAGGCCUGUGGACAGGG [hsa-mir-555] ; Class = ?
a: 1

q: Form: Item = CAGCCCUGCACUGAAC [hsa-mir-614] ; Class = ?
a: 2

q: Form: Item = UCUUUAUUUGACAUGAGUAAAUUUCCCCUUAAAUUAAGGGGUACUGCUGUUAUGUCUUUAAAAGA [SHAPE_invitro_SARS-CoV-2_Motif_387] ; Class = ?
a: 2
